# Tested on: A549 cells
# test method notes: Cytotoxicity against A549 cells, Alamar Blue
# Type: cell-based
# test conditions: Homo sapiens, A549, 65 h; Supplementary Table 1; compound 0.5 mM; percentage of controls (n=1)
Strictly below 80% in viability at 500 µM: 1. Otherwise: 0.

Some solved cases for reference:
{"compound": "Cc1ccc2c(c1)OCO2", "group label": 0}
{"compound": "Cc1ccc2sc(CO)cc2c1 [compound 442, 5‐Methylbenzo[b]thiophene‐2‐methanol]", "group label": 1}
{"compound": "OCc1ccccc1-n1cccc1 [compound 371, [2‐(1H‐pyrrol‐1‐yl)phenyl]methanol]", "group label": 0}
{"compound": "C1CNCCNC1", "group label": 0}
{"compound": "CC1(C)C=Cc2cc(C#N)ccc2O1", "group label": 0}
{"compound": "Nc1cccc(C(=O)c2ccccc2)c1", "group label": 1}

Now examine the next entry.
Does the reported viability at 500 µM of the following compound sit strictly below 80%? CC(=O)c1c(O)cccc1O [compound 204, 1-(2,6-dihydroxyphenyl)ethan-1-one]
1

====

# Test system: A549 cells
# test method notes: Cytotoxicity against A549 cells, Alamar Blue
# Type: cell-based
# test conditions: Homo sapiens, A549, 65 h; Supplementary Table 1; compound 0.5 mM; percentage of controls (n=1)
I'd appreciate it if you marked entries 1 (yes) when viability at 500 µM is lower than 90% and 0 (no) when it is not.

{"compound": "OCc1nccn1Cc1ccccc1 [compound 526, (1‐benzyl‐1H‐imidazol‐2‐yl)methanol]", "group label": "1 (yes)"}
{"compound": "N#Cc1ccnc(N2CCSCC2)c1 [compound 668, 2‐thiomorpholinoisonicotinonitrile]", "group label": "0 (no)"}

# strict comparison: is reported viability at 500 µM < 90%? input = NCc1cccc(F)c1 [compound 70, 3‐fluorobenzylamine]
0 (no)

Check if viability at 500 µM falls below 90% for OCc1ccnc(N2CCCC2)c1 [compound 438, (2‐pyrrolidin‐1‐ylpyrid‐4‐yl)methanol] .
1 (yes)

In plain terms, does NC(=O)c1ccccc1N1CCCCC1 [compound 651, 2‐piperidinobenzamide] come in under 90% for viability at 500 µM?
0 (no)

====

# Tested on: A549 cells
# test method notes: Cytotoxicity against A549 cells, Alamar Blue
# Assay type: cell-based
# test conditions: Supplementary Table 1; compound 0.5 mM; percentage of controls (n=1)
property: A549 Cells Alamar Blue

Below are worked cases with known answers.
{"compound": "OCc1ccc(Cn2ccnc2)cc1", "property": "A549 Cells Alamar Blue", "observed result": "81.2 percentage of controls"}
{"compound": "CC(=O)Nc1ccc2c(c1)CCCC2=O", "property": "A549 Cells Alamar Blue", "observed result": "93.5 percentage of controls"}
{"compound": "OCc1cccc(Cn2ccnc2)c1", "property": "A549 Cells Alamar Blue", "observed result": "69.2 percentage of controls"}

Please look up its A549 Cells Alamar Blue: `CC(=O)c1cc2cc(Cl)ccc2o1`
99.5 percentage of controls

Query: A549 Cells Alamar Blue; subject: `CNCc1ccc2c(c1)OCO2`
58.3 percentage of controls

Which A549 Cells Alamar Blue is reported for this compound? `NCc1ccc2c(c1)OCCO2`
72.7 percentage of controls

I'd like to know its A549 Cells Alamar Blue. The compound in question is `CN1CCc2c(sc(N)c2C#N)C1`
82.2 percentage of controls

====

# tgt: TbINO1 (Trypanosoma brucei brucei, UniProt Q5QQ46)
# Sequence (Q5QQ46 whole entry): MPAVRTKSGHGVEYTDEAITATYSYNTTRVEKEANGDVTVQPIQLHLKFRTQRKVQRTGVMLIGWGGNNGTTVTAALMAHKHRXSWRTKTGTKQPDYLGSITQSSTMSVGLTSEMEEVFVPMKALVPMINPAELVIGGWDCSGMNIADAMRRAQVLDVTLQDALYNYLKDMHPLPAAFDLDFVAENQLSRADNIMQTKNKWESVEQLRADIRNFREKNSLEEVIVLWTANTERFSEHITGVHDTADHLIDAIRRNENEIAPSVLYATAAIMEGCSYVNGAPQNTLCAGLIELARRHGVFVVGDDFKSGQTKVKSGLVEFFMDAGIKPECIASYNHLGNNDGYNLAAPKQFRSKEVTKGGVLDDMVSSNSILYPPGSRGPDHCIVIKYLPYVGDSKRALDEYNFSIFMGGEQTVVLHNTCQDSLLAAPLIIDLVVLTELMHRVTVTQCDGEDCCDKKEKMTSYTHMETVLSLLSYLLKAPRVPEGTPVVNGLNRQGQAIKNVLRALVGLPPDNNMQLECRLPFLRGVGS
# test method notes: biochemical
# Assay type: binding
# test conditions: read-out: Tb Ino1 Tm Shift [˚C]
Classes based on ΔTm at 1000 µM: bin 1 (below 0.2 °C), bin 2 (0.2 °C to below 0.4 °C), bin 3 (0.4 °C or more)

// below: answered compounds
{"compound": "COC(=O)c1cccs1 [compound 138, methyl thiophene‐2‐carboxylate]", "group label": "bin 2"}
{"compound": "N#CCCNCc1ccco1 [compound 189, 3‐[(2‐furylmethyl)amino]propanenitrile]", "group label": "bin 3"}

Turning to the following compound.
Textbook exercise: identify the category of the compound given here, `O=C(O)C1CCNCC1` , according to its measured value.
bin 3

====

# Test system: A549 cells
# test method notes: Cytotoxicity against A549 cells, Alamar Blue
# Type: cell-based
# test conditions: Homo sapiens, A549, 65 h; Supplementary Table 1; compound 0.5 mM; percentage of controls (n=1)
Where a name gives a salt, the structure may show the parent alone.
viability at 500 µM vs 80%: less than gives MET; not less than gives NOT MET.

{"molecule": "O=C(O)Cc1cccnc1 [compound 381, pyridin‐3‐ylacetic acid hydrochloride]", "tgt": "A549 cells", "group label": "NOT MET"}

Determine if O=C(O)C(O)c1ccccc1 (centres unmarked) [compound 202, 2‐hydroxy‐2‐phenylacetic acid] shows viability at 500 µM strictly lower than 80%.
MET

For this molecule, is viability at 500 µM lower than 80%? Cc1cccc(C)c1C#N [compound 94, 2,6‐dimethylbenzonitrile]
NOT MET

In the record for CC(=O)CSc1ccc(C)cc1 [compound 460, 1‐[(4‐methylphenyl)thio]acetone] , is viability at 500 µM less than 80%?
NOT MET

Is viability at 500 µM strictly under 80% for the entry Cc1nc(-c2cccc(N)c2)cs1 [compound 546, 3‐(2‐methyl‐1,3‐thiazol‐4‐yl)aniline] ?
MET

Determine whether this molecule shows viability at 500 µM lower than 80% (ties excluded): N#CCc1ccccn1 [compound 46, 2‐(2‐pyridyl)acetonitrile]
NOT MET

====

# Tested on: A549 cells
# test method notes: Cytotoxicity against A549 cells, Alamar Blue
# Assay type: cell-based
# test conditions: Homo sapiens, A549, 65 h; Supplementary Table 1; compound 0.5 mM; percentage of controls (n=1)
property: viability at 500 µM (%)
Note: unit % is implicit; provide only the numeric part.

Using the record for CC1Cc2ccccc2C1=O (stereo not drawn) , report its viability at 500 µM.
126

viability at 500 µM lookup needed for `COc1ccc(N)c(OC)c1` , thanks.
61.2

Which viability at 500 µM value belongs to `Cc1ccc(C(=O)O)c(N)c1` ?
36.7

Entry `FC(F)(F)c1cc[nH]n1` : reported viability at 500 µM = ?
73.8

Dear colleague, I am looking for the recorded viability at 500 µM of the following compound: `NCCOc1ccccc1`
100

====

# Tested on: A549 cells
# test method notes: Cytotoxicity against A549 cells, Alamar Blue
# Type: cell-based
# test conditions: Homo sapiens, A549, 65 h; Supplementary Table 1; compound 0.5 mM; percentage of controls (n=1)
# viability at 500 µM per record follows
Record the value in %, omitting the unit from your answer.

{"molecule": "OCC1COc2ccccc2C1 (centres unmarked) [compound 300, 3,4‐dihydro‐2H‐chromen‐3‐ylmethanol]", "property": "viability at 500 µM", "unit info": "%", "observed result": 113}

// moving on: another record for viability at 500 µM
Can you look up the measured viability at 500 µM of CC(=O)Nc1ccccc1F [compound 212, N1‐(2‐fluorophenyl)acetamide] for me?
65.4

====

# Test system: A549 cells
# test method notes: Cytotoxicity against A549 cells, Alamar Blue
# Format: cell-based
# test conditions: Homo sapiens, A549, 65 h; Supplementary Table 1; compound 0.5 mM; percentage of controls (n=1)
# Protocol: Cytotoxic effects against HeLa and A549 cells were determined in a similar manner. Briefly, the cells were cultured in DMEM supplemented with 10% FCS and 2 mM L-Glutamine. Cells were plated at initial cell concentration of 2 × 10^4 cells/well and incubated with the compounds for ~65 hours prior to addition of Alamar Blue solution for a further 5 hours.
Overview of reported viability at 500 µM across a group of compounds:
Numbers only here, please. The scale is %.

A selection of reference data follows.
{"compound": "NCc1cccc(-n2cccc2)c1", "tgt": "A549 cells", "unit info": "%", "observed result": 56.9}
{"compound": "O=C(O)c1cccc(-c2ccsc2)c1", "tgt": "A549 cells", "unit info": "%", "observed result": 165}
{"compound": "Cc1cc(CN)no1", "tgt": "A549 cells", "unit info": "%", "observed result": 75.6}
{"compound": "NC(=S)c1ccccc1 [compound 123, benzene‐1‐carbothioamide]", "tgt": "A549 cells", "unit info": "%", "observed result": 87.9}

GET /values?readout=viability at 500 µM&system=A549 cells&item= `Nc1cccc(-c2cccnc2)c1`
98.5

====

# System: A549 cells
# test method notes: Cytotoxicity against A549 cells, Alamar Blue
# Format: cell-based
# test conditions: Homo sapiens, A549, 65 h; Supplementary Table 1; compound 0.5 mM; percentage of controls (n=1)
property: viability at 500 µM (%)
Report as a plain number; the unit % is understood.

Would you please look over these solved cases?
{"molecule": "C#Cc1ccc(OC)cc1 [compound 96, 1‐eth‐1‐ynyl‐4‐methoxybenzene]", "tgt": "A549 cells", "unit info": "%", "observed result": 111}
{"molecule": "NCc1ccc(C(F)(F)F)cc1 [compound 390, 4‐(trifluoromethyl)benzylamine]", "tgt": "A549 cells", "unit info": "%", "observed result": 136}
{"molecule": "COC(=O)C1NCCS1 (centres unmarked) [compound 44]", "tgt": "A549 cells", "unit info": "%", "observed result": 75.7}
{"molecule": "OCCc1cccnc1 [compound 63, 2‐(3‐pyridyl)ethan‐1‐ol]", "tgt": "A549 cells", "unit info": "%", "observed result": 76.9}

Next molecule, viability at 500 µM to be filled in.
What value of viability at 500 µM has been recorded for this entry: O=C1CC(C(=O)O)c2ccccc21 (centres unmarked) [compound 409, 3‐oxoindane‐1‐carboxylic acid]
92
